Listed below: MTD values for each entry.
Test system: Human alphaherpesvirus 2
Assay: In vivo maximum tolerated dose against herpes simplex virus-2 (HSV-2) by oral administration in female mice
Assay type: functional
property_label: MTD

smiles_record	observed
Cn1cc(C(N)=O)c(=O)c2ccc(-c3ccncc3)cc21	25 mg/kg
Cc1ccc(-n2cc(C(N)=O)c(=O)c3ccc(-c4ccncc4)cc32)cc1C	>200 mg/kg
NC(=O)c1cn(-c2ccc(F)cc2)c2cc(-c3ccccc3)ccc2c1=O	>200 mg/kg
CCn1c(N)c(C(N)=O)c(=O)c2ccc(-c3ccncc3)cc21	>100 mg/kg
Cc1ccc(-n2cc(C(N)=O)c(=O)c3ccc(-c4ccncc4)cc32)cc1	50 mg/kg
NC(=O)c1cn(-c2ccc(Cl)cc2)c2cc(-c3ccncc3)ccc2c1=O	100 mg/kg
Cc1cc(-c2ccc3c(=O)c(C(N)=O)cn(-c4ccc(F)cc4)c3c2)sn1	>100 mg/kg
NC(=O)c1cn(Cc2ccc(Cl)c(Cl)c2)c2cc(-c3ccncc3)ccc2c1=O	>100 mg/kg
NC(=O)c1cn(-c2ccc(F)cc2)c2cc(-c3cc[n+]([O-])cc3)ccc2c1=O	100 mg/kg
NC(=O)c1cn(-c2ccc(F)cc2F)c2cc(-c3ccncc3)ccc2c1=O	<25 mg/kg

* * *

Here the recorded MTL is given for each entry.
System: Human alphaherpesvirus 2
Experiment: In vitro maximum tolerated level against herpes simplex virus-2 (HSV-2) by plaque-reduction assay in vero cells
Type: functional

smiles_record	system	unit_annotation	qual	MTL
CCn1c(=O)c(C(N)=O)c(O)c2ccc(-c3ccncc3)cc21	Human alphaherpesvirus 2	µg/mL	=	6.25
CCn1cc(C(=O)O)c(=O)c2ccc(-c3ccncc3)cc21	Human alphaherpesvirus 2	µg/mL	>	200
CCn1cc(C(N)=O)c(=O)c2ccc(N3CCN(C)CC3)cc21	Human alphaherpesvirus 2	µg/mL	=	50
Cc1cc(-c2ccc3c(=O)c(C(N)=O)cn(-c4ccc(F)cc4)c3c2)sn1	Human alphaherpesvirus 2	µg/mL	>	100
CCn1cc(C2=NCCO2)c(=O)c2ccc(-c3ccncc3)cc21	Human alphaherpesvirus 2	µg/mL	=	12.5
NC(=O)c1cn(-c2ccc(F)cc2)c2cc(Br)ccc2c1=O	Human alphaherpesvirus 2	µg/mL	=	6.25
CCn1cc(C(=O)NN)c(=O)c2ccc(-c3ccncc3)cc21	Human alphaherpesvirus 2	µg/mL	=	50
CCCn1cc(C(N)=O)c(=O)c2ccc(-c3ccncc3)cc21	Human alphaherpesvirus 2	µg/mL	=	6.25
NC(=O)c1c(O)c2ccc(-c3ccncc3)cc2n2c1nc1ccccc12	Human alphaherpesvirus 2	µg/mL	=	0.4
CCn1cc(C(N)=O)c(=O)c2ccc(-c3ccncc3)cc21	Human alphaherpesvirus 2	µg/mL	=	12.5
CCn1cc(C(N)=O)c(=O)c2ccccc21	Human alphaherpesvirus 2	µg/mL	=	50

* * *

Test system: Human alphaherpesvirus 2
Assay: In vivo maximum tolerated dose against herpes simplex virus-2 (HSV-2) by oral administration in female mice
Format: functional
Catalogue of molecules with associated MTD
property_label: MTD (mg/kg)

smiles_record	property_label	unit_annotation	observed
NC(=O)c1cn(-c2cccc(F)c2)c2cc(-c3ccncc3)ccc2c1=O	MTD	mg/kg	50
NC(=O)c1cn(-c2ccc(C(F)(F)F)cc2)c2cc(-c3ccncc3)ccc2c1=O	MTD	mg/kg	50
CCn1cc(C(N)=O)c(=O)c2ccc(-c3ccncc3)cc21	MTD	mg/kg	50
CCn1cc(C(N)=O)c(=O)c2ccc(-c3ccccn3)cc21	MTD	mg/kg	100
CCn1cc(C(N)=O)c(=O)c2ccc(-c3cccnc3)cc21	MTD	mg/kg	100
